- System: Plasmodium berghei
- measurement.notes: Screen against P. berghei liver stage (PbLuc), transformed with Luciferase, at 10uM
- Format: functional, HepG2
- measurement.conditions: tested at 10 uM
The whole screen tested about 69,000 compounds, of which about 8,600 (12%) showed an effect of 50% or more. The sample as a whole holds a higher share of strong results than the screen did.
Classification field: enter True for INHIBITION values not below 30%, False for values below it.

### Prompt Does NCCc1nc(N[C@@H](CO)c2ccccc2)c2ccccc2n1 have a reported INHIBITION of at least 30%?
### Response True

### Prompt Does COc1ccc(-c2cc(N)ccn2)c(OC)c1OC have a reported INHIBITION of at least 30%?
### Response True

### Prompt Does COCCN1CCN(S(C)(=O)=O)Cc2ccc(C)nc21 have a reported INHIBITION of at least 30%?
### Response False

### Prompt Does CNC(=O)N1C[C@@H]2C[C@H](C(=O)NCc3cccnc3)[C@H](C1)O2 have a reported INHIBITION of at least 30%?
### Response False

### Prompt Does CN(CC1CCN(CCO)CC1)CC(O)c1ccc(F)c(F)c1 (centres undefined) have a reported INHIBITION of at least 30%?
### Response True

### Prompt Does Cc1nc(CN2CCO[C@H]3[C@@H](OCc4cccnc4)CC[C@@H]32)cs1 have a reported INHIBITION of at least 30%?
### Response False

### Prompt Does Cc1ccc2c(n1)N(CC(C)C)CCN(S(C)(=O)=O)C2 have a reported INHIBITION of at least 30%?
### Response True

### Prompt Does COc1ccc(-c2ccnc(N)c2)c(OC)c1 have a reported INHIBITION of at least 30%?
### Response False

### Prompt Does CC(C)CCN1C[C@@H]2C[C@H](C(=O)NCC(C)C)[C@H](C1)O2 have a reported INHIBITION of at least 30%?
### Response True

### Prompt Does O=C(CCN1CCCO1)N1CC[C@@H](CNC(=O)N2CCCC2)[C@H](O)C1 have a reported INHIBITION of at least 30%?
### Response True

### Prompt Does COc1cc(F)ccc1-c1cc(N)ccn1 have a reported INHIBITION of at least 30%?
### Response True

### Prompt Does Cc1ccc(NC(=O)NCCc2ccncc2C)c(N(C)C)n1 have a reported INHIBITION of at least 30%?
### Response False

### Prompt Does CN1CC(C(=O)NCc2cccnc2-n2cccn2)CC1=O (centres undefined) have a reported INHIBITION of at least 30%?
### Response False

### Prompt Does CC(C)CNC(=O)[C@H]1CCS(=O)(=O)[C@@H]2CN(Cc3cccnc3)C[C@H]12 have a reported INHIBITION of at least 30%?
### Response False

### Prompt Does c1cnnc(N2CCCC2CNCc2noc(C3CC3)n2)c1 (centres undefined) have a reported INHIBITION of at least 30%?
### Response False

### Prompt Does CCC(Nc1nc(CCN)nc2ccccc12)c1cc(C)ccn1 (centres undefined) have a reported INHIBITION of at least 30%?
### Response False

### Prompt Does Cc1nc(-c2ccc(CNS(=O)(=O)N(C)C)cc2)ccc1C(N)=O have a reported INHIBITION of at least 30%?
### Response False

### Prompt Does CN(CC1CCN(CCO)CC1)CC(O)c1ccc(F)cc1F (centres undefined) have a reported INHIBITION of at least 30%?
### Response True

### Prompt Does CCC(CO)N(Cc1cccnc1)C(=O)c1ccoc1C (centres undefined) have a reported INHIBITION of at least 30%?
### Response False

### Prompt Does N[C@@H](Cc1c[nH]cn1)C(=O)N1CCC(Oc2ccc(F)cc2)CC1 have a reported INHIBITION of at least 30%?
### Response True

### Prompt Does O=C(CCN1CCCCO1)N1CC[C@H](O)[C@@H](O)C1 have a reported INHIBITION of at least 30%?
### Response False

### Prompt Does CC(C)CCN1C[C@@H]2C[C@H](C(=O)Nc3ccccc3)[C@H](C1)O2 have a reported INHIBITION of at least 30%?
### Response True

### Prompt Does CC(C)O[C@H]1CN(C(=O)CCN2CCCCO2)C[C@@H]1O have a reported INHIBITION of at least 30%?
### Response True

---

Field: INHIBITION. Provide a value for each of the molecules that follow.
- Test system: Plasmodium berghei
- measurement.notes: Screen against P. berghei liver stage (PbLuc), transformed with Luciferase, at 10uM
- Assay type: functional, HepG2
- measurement.conditions: tested at 10 uM
The whole screen tested about 69,000 compounds, of which about 8,600 (12%) showed an effect of 50% or more. What follows is part of a selection rich in strong results, with near analogues and random picks from the rest.
Field format: number, assumed %, no unit text.

### Prompt Fill in INHIBITION for record CN(C(=O)c1ccc2c(c1)nc(N1CC[C@H](O)C1)n2C)C1CCSCC1
### Response -1.04

### Prompt Fill in INHIBITION for record COc1ccc(C(=O)N2C[C@@H]3CC[C@H]2CN(C)C3)cc1Cl
### Response 32.3

### Prompt Fill in INHIBITION for record O=C(O)c1cc(-c2cccs2)nc2c(Cl)cnn12
### Response 47.1

### Prompt Fill in INHIBITION for record Cc1cnc(CNC(=O)[C@@]23CCO[C@@H]2CCN(C2CCCC2)C3)cn1
### Response 18.6

### Prompt Fill in INHIBITION for record Cc1c(C(N)=O)sc2nc(C(F)(F)F)ccc12
### Response 54.5

### Prompt Fill in INHIBITION for record Cc1ccc(C(=O)N2CCCC2c2nnc3n2CCCCC3)o1 (configuration not stated)
### Response 8.47

### Prompt Fill in INHIBITION for record O=C(CCc1cc2n(n1)CCN(Cc1ccncc1)C2)N1CCCC1
### Response 33.5

### Prompt Fill in INHIBITION for record CN1CCN(C(=O)[C@H]2C[C@@H]3CN(c4ncc(F)cn4)C[C@@H]3N2C)CC1
### Response -1.15

### Prompt Fill in INHIBITION for record Cc1nc(C2CCCN2C(=O)Cc2ccc(F)cc2)nc(O)c1C (configuration not stated)
### Response -10.5

### Prompt Fill in INHIBITION for record CCC(C)(C)NC(=O)CSCc1ccc(S(=O)(=O)N(C)C)o1
### Response 3.73

### Prompt Fill in INHIBITION for record CN(CC(F)(F)F)C(=O)CNC(=O)N1CCCC(N(C)C)C1 (configuration not stated)
### Response 53.3

### Prompt Fill in INHIBITION for record CN1CC2(CCN(Cc3cc(Cl)ccc3OCC(=O)O)CC2)OC1=O
### Response 33.3

### Prompt Fill in INHIBITION for record CC1(c2cc[nH]n2)CCN(C(=O)c2ccc(Cl)cc2)CC1
### Response -2.09

### Prompt Fill in INHIBITION for record CC(CN1CCOCC1)OC(=O)c1ccccc1I (configuration not stated)
### Response 38.9

### Prompt Fill in INHIBITION for record CN(CC(F)(F)F)C(=O)CNC(=O)N1CCCC(C(F)(F)F)C1 (configuration not stated)
### Response 18.6

### Prompt Fill in INHIBITION for record Cn1ccnc1C(O)c1ccccc1N1CCN(CC2CCCC2)CC1 (configuration not stated)
### Response 13

### Prompt Fill in INHIBITION for record O=C1CC(c2ccncc2)c2c(sc3c2CCCC3)N1 (configuration not stated)
### Response 20.4

### Prompt Fill in INHIBITION for record Cc1c(C(=O)O)sc2nc(C(F)(F)F)ccc12
### Response -11.9

### Prompt Fill in INHIBITION for record CCn1ncc(CNC(=O)c2cn(CCC3CCCCN3)nn2)c1C (configuration not stated)
### Response 83.8

### Prompt Fill in INHIBITION for record CC(C)CN1CC[C@@H]2[C@@H]1CCN2C(=O)N1CCCC1
### Response 31.9

### Prompt Fill in INHIBITION for record Cc1cccc(CN2CCC(N(C)Cc3nnc(C4CC4)n3C)C2)c1 (configuration not stated)
### Response 38.5

### Prompt Fill in INHIBITION for record CC1CN(CC(=O)NC(C2CC2)C2CC2)CCN1Cc1nccn1C (configuration not stated)
### Response -43.05

### Prompt Fill in INHIBITION for record COc1ccc2c(c1)C1(CCN(Cc3cnn(C)c3)CC1)N(C)CC2
### Response -72

### Prompt Fill in INHIBITION for record Cc1ccc(F)cc1-n1c(CCCN2CCOCC2)n[nH]c1=O
### Response 39.4

### Prompt Fill in INHIBITION for record CCc1ccc(C(=O)N2CCCC2c2nnc3n2CCCCC3)o1 (configuration not stated)
### Response 57.7

### Prompt Fill in INHIBITION for record NC1CCN(S(=O)(=O)c2ccc(C(=O)N3CCSCC3)cc2)C1 (configuration not stated)
### Response 2.49

### Prompt Fill in INHIBITION for record CS(=O)(=O)NCc1cc(=O)n2c(n1)CN(CC1CC1)CCC2
### Response 37.6

### Prompt Fill in INHIBITION for record Cc1nccn1[C@@H]1CC[C@@H](N(C)S(=O)(=O)c2ccc(F)cc2)[C@H]1O
### Response -0.4

### Prompt Fill in INHIBITION for record CN(C)C(=O)c1ccc2c(c1)nc(N1CC[C@H](O)C1)n2C
### Response 51.8

### Prompt Fill in INHIBITION for record CCOc1ccc(C(=O)N2C[C@@H]3CC[C@H]2CN(C)C3)cc1OCC
### Response 28

### Prompt Fill in INHIBITION for record CCC1CN(c2ncnc3nc[nH]c23)CCO1 (configuration not stated)
### Response -2.03

### Prompt Fill in INHIBITION for record CCc1noc(CN(C)CC(c2cccs2)N2CCOCC2)n1 (configuration not stated)
### Response 60.5

### Prompt Fill in INHIBITION for record CN(Cc1ccc(N2CCOCC2)cc1)Cc1noc(C(C)(C)C)n1
### Response -8.51

### Prompt Fill in INHIBITION for record CCc1noc(CN(CC(=O)N2CCCCC2)c2ccc(C)cc2)n1
### Response 50.1

### Prompt Fill in INHIBITION for record CCc1noc(CN(CC(=O)N2CCCCC2)c2cccc(C)c2)n1
### Response 18

### Prompt Fill in INHIBITION for record CC(C)CN1CC[C@@H]2[C@@H]1CCN2C(=O)N(C)C
### Response 3.88

### Prompt Fill in INHIBITION for record CCn1nc(C)c(CNC(=O)c2cn(CCC3CCCCN3)nn2)c1C (configuration not stated)
### Response -25

### Prompt Fill in INHIBITION for record CCc1noc(CN(C)Cc2cc(Br)ccc2OC)n1
### Response 30.9

### Prompt Fill in INHIBITION for record CCc1nc(C2CCCN2Cc2cc(=O)n(C)c(=O)n2C)no1 (configuration not stated)
### Response -27.9

### Prompt Fill in INHIBITION for record Cc1cccc(N(CC(=O)N2CCCCC2)Cc2ccno2)c1
### Response 36.2

### Prompt Fill in INHIBITION for record CCOc1ccccc1N1CCN(C(=O)c2cc[nH]n2)CC1
### Response 44.1

### Prompt Fill in INHIBITION for record CCCNC(=O)CSCc1ccc(S(=O)(=O)N(C)C)o1
### Response 53.7

### Prompt Fill in INHIBITION for record COCCC(=O)N1CCCC1c1csc(Nc2ccccn2)n1 (configuration not stated)
### Response 30.8

### Prompt Fill in INHIBITION for record CC(NC(=O)CN(C)C(C)C)c1ccc(Oc2cccnc2)c(F)c1 (configuration not stated)
### Response 23.5

### Prompt Fill in INHIBITION for record CN(C)c1cc(C(=O)N2CCCCC2Cn2cccn2)ccn1 (configuration not stated)
### Response 17.5

### Prompt Fill in INHIBITION for record COCC(=O)N1CC[C@H]2[C@H]1CCN2CC(C)C
### Response 52.6

### Prompt Fill in INHIBITION for record CC(C)(O)CN1CCN(C(=O)c2ccc(Cl)c3cccnc23)CC1
### Response 36.9
